Biological target: T1, Siglec-7-ECD-Fc (human, UniProt Q9Y286 19-353)
T1 construct: also called recombinant Siglec-7-Fc fusion protein; Siglec-7-Fc; not shown: human Fc (huFc)
T1 sequence (Q9Y286 19-353): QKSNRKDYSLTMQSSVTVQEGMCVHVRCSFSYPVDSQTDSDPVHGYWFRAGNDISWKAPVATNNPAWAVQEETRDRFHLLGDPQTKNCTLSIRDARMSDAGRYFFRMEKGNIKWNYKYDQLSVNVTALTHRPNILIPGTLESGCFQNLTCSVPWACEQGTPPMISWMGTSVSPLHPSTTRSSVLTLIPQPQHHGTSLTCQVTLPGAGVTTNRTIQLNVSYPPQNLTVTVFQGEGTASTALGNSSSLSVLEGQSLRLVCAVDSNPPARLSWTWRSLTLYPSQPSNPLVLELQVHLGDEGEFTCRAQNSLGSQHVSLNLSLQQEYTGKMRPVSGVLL
Assay: ligand blocking on cells, flow cytometry: antibody dilutions pre-mixed with 10 nM Siglec-7-ECD-Fc, then binding of Siglec-7-ECD-Fc to Siglec-7 ligands on A375 melanoma cells
Protocol: Recombinant Siglec-7-Fc was added to A375 cells in the presence of anti-Siglec-7 antibodies at increasing concentrations and binding of the complex was detected on the cell surface. Human melanoma cell line A375, which expresses high level of ligands for Siglec-7, was used to determine the blocking activity of anti-Siglec-7 antibodies in a cell based assay. […] IC₅₀ values for blocking were determined based on plotting mean fluorescence in the APC channel and analysis using Prism Graphpad software.
property: pIC50
Conceptually, pIC50 converts a concentration in mol/L into minus its log10.

binder monoclonal antibody 3F1 (antibody, V domains shown) VH: EFQLQQSGPEMVKPGASVKMSCKASGDSFTDYKINWVKQNNGKSLEWIGVINPDSGTTSYNQIFEGKATLTVDQSSSTAYMQVNRLTSEDSAVYYCTTWDDYSFYAMDYWGQGTSVTVSS VL: DVLMTQTPLSLPVSLGDQASISCRSSQNIVHSNGNTYLEWFLQKPGQSPKLLIYKVSNRFSGVPDRFSGSGSGTDFTLKISRVEAEDLGVYYCFQGSHIPWTFGGGTKLEIK , pIC50 observed: 8.07

binder 10E11 (antibody, V domains shown) VH: EVQLQQSGPELVKPGDSVKISCKASGYSSTGYFMNWVMQSHGKSLEWIGRIIPYNGDTFYNQKFKDKATLTVDKSSNTAHLELRSLTSEDSVVYYCAGPRIGGDYDGGSWLAYWGQGTLVTVSA VL: DIVMTQSQKFMSTTVGDRVSITCKASQNVGTAVAWYQQKPGHSPKLLIYSASNRYTGVPDRFTGSGYGTDFTLTISNMQSEDLADYFCQQYNSYPLTFGAGTKLELK , pIC50 observed: 8.21

binder 5G10 (antibody, V domains shown) VH: EVKLEESGGGLVQPGGSMKVSCVASGFTFSNYWMNWVRQSPEKGLEWVAQIRLKSDNYATHYAESVKGRFTISRDDSKSSVYLQMNNLRAEDTGIYYCTEGDYDIFAYWGQGTLVTVSA VL: DIQMTQTTSSLSASLGDRVTISCSASQGITNYLNWYQQKPDGTVKLLIYYTSILHSGVPSRFSGSGSGTDYSLTISNLEPEDIATYYCQQYSKPPYTFGGGTKLEIK , pIC50 observed: 8.51
